Values were extracted from patent US20070014720A1.

Please go through the items and note down their % Lysis Raji 0.001 µg/ml ADCC.
# assay.target: T1, human CD20 (human, UniProt P11836 1-297)
# T1 sequence (looked up): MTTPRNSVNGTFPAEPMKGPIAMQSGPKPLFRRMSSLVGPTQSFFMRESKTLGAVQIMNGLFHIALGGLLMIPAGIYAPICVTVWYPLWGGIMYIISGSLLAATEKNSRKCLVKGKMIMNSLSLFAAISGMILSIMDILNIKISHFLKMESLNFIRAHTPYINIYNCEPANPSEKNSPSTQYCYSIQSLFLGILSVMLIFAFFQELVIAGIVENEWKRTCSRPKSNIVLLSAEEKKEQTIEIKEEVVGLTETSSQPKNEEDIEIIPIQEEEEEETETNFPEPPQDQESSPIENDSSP
# experiment.notes: cell-based or functional assay
Numbers only; they are read as %.

Quick one: % Lysis Raji 0.001 µg/ml ADCC for mAb 2.2.2 (antibody, human IgG1, V domains shown) VH: EVQLVQSGAEVKKPGESLKISCKGSGYSFTSYWIGWVRQMPGKGLEWMGIIYPGDSDTKYSPSFQGQVTISADKSISTAYLQWSSLKASDTAMYYCARQGDFWSGNGGMDVWGQGTTVTVSS VL: DIVMTQTPLSSPVTLGQPASISCRSSQSLVSRDGNTYLSWLQQRPGQPPRLLIYKISNRFSGVPDRFSGSGAGTDFTLKISRVEVEDVGVYYCMQATQFPITFGQGTRLEIK ?
7

Quick one: % Lysis Raji 0.001 µg/ml ADCC for mAb 1.2.1 (antibody, human IgG1, V domains shown, Human IgG1 kappa; also called 1.2.1.1; 50-001H1_2_1_1) VH: EVQLVQSGAEVKKPGESLKISCKGSGYSFTSYWIGWVRQMPGKGLEWMGIIYPGDSDTRYSPSFQGQVTISADKSISTAYLQWSSLKASDTAMYYCARLGDYYNYYGMDVWGQGTTVTVSS VL: DIVMTQTPLSSPVTLGQPASISCRSSQSLVHSDGKTYLSWLQQRPGQPPRLLIYKSSNRFSGVPDRFSGSGAGTDFTLKISRVEAEDVGVYYCVQATQFPITFGQGTRLEIK ?
8

Quick one: % Lysis Raji 0.001 µg/ml ADCC for mAb 1.12.3 (antibody, human IgG1, V domains shown) VH: EVQLVQSGAEVKKPGESLKISCKGSGYSFTSYWIGWVRQMSGKGLEWMGIIYPGDSDTRYSPSFQGQVTISADKSISTAYLQWSSLKASDTAIYYCARHPSYGSGSPNFDYWGQGTLVTVSS VL: DIVMTQTPLSSPVTLGQPASISCRSSQSLVYSDGNTYLSWLQQRPGQPPRLLFYKISNRFSGVPDRFSGSGAGTDFTLKISRVEAEDVGVYYCVQATQFPLTFGGGTKVEIK ?
3

Quick one: % Lysis Raji 0.001 µg/ml ADCC for mAb 2.1.2 (ATCC Accession Number PTA-7328) (antibody, human IgG1, V domains shown, Human IgG1 kappa; also called 2.1.1; 50-001H2_1_1) VH: EVQLVQSGAEVKKPGESLKISCKGSGYSFTSYWIGWVRQMPGKGLEWMGIIYPGDSDTRYSPSFQGQVTISADKSISTAYLQWSSLKASDTAMYYCARQGDFWSGYGGMDVWGQGTTVTVSS VL: DIVMTQTPHSSPVTLGQPASISCRSSQSLVSRDGNTYLSWLQQRPGQPPRLLIYKISNRFSGVPNRFSGSGAGTDFTLKISRVKAEDVGVYYCMQATQFPLTFGQGTRLEIK ?
7

Quick one: % Lysis Raji 0.001 µg/ml ADCC for mAb 1.13.2 (antibody, human IgG1, V domains shown, Human IgG1 kappa; also called 1.13.1; 50-001H1_13_1) VH: EVQLVQSGAEVKKPGESLKISCKGSGYSFTNYWIGWVRQMPGKGLEWMGIIYPGDSDTRYSPSFQGQVTISADKSISTAYLQWSSLKASDTAMYYCARQGDYYHYSGMDVWGQGTTVTVSS VL: DVVMTQSPLSLSVTLGQPASISCRSSQSLVYNDGDTYLNWFQQRPGQSPRLLIYKVSNWDSGVPDRFSGSGSGTDFTLKVSRVEAEDVGVYYCMQGTHWPLTFGGGTKVEIK ?
5

Quick one: % Lysis Raji 0.001 µg/ml ADCC for mAb 1.6.2 (antibody, human IgG1, V domains shown) VH: EVQLVQSGAEVKKPGESLKISCKGSGYSFTSYWIGWVRQMPGKGLEWMGIIYPGDSDTRYSPSFQGQVTISADKSISTAYLQWSSLKASDTAMYYCARHGDYSNIDAFDIWGQGTMVTVSS VL: DVVMTQSPLSLPVTLGQPASISCRSSQSLVYSDGNAYLNWFQQRPGQSPRRLIYKVSNWDSGVPDRFSGSGSGTDFTLKIRRVEAEDVGAYYCMQGIHCTFGPGTKVHIK ?
5
